# MCF7 pAkt (S473) % inhibition annotations
- TESTED_ON: Human HER3, endogenous, on human cancer cell lines (SK-Br-3, MCF7, BT-474) (human, UniProt P21860 20-1342)
- Sequence (P21860 20-1342): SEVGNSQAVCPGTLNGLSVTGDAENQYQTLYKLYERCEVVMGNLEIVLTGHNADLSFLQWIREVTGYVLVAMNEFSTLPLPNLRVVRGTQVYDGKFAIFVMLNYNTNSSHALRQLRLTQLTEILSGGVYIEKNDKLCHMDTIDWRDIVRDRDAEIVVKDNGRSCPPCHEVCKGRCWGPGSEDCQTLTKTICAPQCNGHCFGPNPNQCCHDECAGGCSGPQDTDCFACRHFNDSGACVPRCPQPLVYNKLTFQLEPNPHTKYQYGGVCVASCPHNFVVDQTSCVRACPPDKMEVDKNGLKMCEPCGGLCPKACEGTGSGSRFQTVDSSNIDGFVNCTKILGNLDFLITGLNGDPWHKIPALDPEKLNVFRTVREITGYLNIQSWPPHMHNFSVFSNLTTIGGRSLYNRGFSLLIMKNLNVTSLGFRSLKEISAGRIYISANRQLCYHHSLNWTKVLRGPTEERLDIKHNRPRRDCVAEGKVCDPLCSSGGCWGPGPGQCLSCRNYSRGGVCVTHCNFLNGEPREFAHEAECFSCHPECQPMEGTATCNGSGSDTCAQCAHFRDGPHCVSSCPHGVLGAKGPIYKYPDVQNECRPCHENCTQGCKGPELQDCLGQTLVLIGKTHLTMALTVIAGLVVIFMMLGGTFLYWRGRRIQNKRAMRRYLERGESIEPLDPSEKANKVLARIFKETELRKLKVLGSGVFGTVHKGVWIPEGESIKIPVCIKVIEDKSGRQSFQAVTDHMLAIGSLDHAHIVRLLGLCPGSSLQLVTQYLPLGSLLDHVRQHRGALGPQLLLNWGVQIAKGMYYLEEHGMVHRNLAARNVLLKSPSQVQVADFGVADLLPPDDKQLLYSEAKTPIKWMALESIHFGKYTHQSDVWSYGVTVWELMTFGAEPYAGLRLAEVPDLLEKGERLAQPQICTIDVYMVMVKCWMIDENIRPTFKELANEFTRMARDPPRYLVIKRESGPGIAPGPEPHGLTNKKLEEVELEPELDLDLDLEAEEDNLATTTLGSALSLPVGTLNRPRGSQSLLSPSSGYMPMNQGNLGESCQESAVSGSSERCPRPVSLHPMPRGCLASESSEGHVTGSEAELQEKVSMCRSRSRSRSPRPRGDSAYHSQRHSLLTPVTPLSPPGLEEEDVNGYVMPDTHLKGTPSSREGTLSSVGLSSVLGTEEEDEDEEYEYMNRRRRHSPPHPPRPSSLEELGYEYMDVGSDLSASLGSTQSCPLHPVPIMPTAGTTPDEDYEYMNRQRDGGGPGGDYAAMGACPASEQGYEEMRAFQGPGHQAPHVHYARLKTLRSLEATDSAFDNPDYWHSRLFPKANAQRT
- PROCEDURE_TEXT: cell-based or functional assay
Give your result in % as a bare value.

Answered cases to consult:
MOR13768 (antibody, human IgG1, kappa, V domains shown, tested as IgG) VH: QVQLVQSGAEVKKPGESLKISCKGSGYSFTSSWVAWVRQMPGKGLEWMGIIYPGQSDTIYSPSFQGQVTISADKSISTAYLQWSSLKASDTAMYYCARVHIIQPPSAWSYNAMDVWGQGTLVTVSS VL: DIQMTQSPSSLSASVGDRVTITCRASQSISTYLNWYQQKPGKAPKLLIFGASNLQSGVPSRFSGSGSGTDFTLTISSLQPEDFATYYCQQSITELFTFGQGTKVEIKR = 73
MOR12925 (antibody, human IgG1, kappa, V domains shown, tested as IgG) VH: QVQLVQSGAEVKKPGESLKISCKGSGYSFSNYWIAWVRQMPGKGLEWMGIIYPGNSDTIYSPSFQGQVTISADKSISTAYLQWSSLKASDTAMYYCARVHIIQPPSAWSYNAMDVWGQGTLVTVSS VL: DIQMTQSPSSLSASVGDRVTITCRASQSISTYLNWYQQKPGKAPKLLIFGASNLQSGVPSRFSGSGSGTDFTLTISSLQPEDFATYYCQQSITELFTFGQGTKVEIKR = 82
MOR13759 (antibody, human IgG1, kappa, V domains shown, tested as IgG) VH: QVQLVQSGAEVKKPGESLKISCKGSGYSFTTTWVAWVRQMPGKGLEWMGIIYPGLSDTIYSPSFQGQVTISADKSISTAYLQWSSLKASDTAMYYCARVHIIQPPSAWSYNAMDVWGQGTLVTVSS VL: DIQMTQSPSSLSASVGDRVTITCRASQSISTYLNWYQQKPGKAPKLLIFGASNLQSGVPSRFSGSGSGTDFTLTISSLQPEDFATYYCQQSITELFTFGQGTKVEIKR = 76

Here is the next item to consider.
Request: Which MCF7 pAkt (S473) % inhibition reading was recorded for the binder MOR13755 (antibody, human IgG1, kappa, V domains shown, tested as IgG) VH: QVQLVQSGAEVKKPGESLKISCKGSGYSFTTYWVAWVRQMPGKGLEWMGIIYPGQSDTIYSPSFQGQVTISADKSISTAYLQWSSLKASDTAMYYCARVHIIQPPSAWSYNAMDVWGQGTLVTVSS VL: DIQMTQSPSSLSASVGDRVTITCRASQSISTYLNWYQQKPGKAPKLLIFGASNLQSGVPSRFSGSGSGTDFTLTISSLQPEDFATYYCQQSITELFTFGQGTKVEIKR ?
Result: 79
